System: UACC-257 melanoma
run_description: NCI-60 one-dose screen, 48 h (100 = growth as untreated, 0 = no growth, -100 = all killed)
test_conditions: 10 µM unless noted
This is part of a sample that, as a whole, favours compounds with a hit. Of some 83,000 tested, about 20% had one in any assay. The source made the active and inactive calls. The calls were made as follows: active = growth percent below 10; inactive = the rest.
Recorded measurements of growth, one per entry

The reported growth value, UACC-257 melanoma, for `Cc1cc(C)nc(SCC(=O)Nc2cccc(N=Cc3ccccc3O)c2)n1` reads 103% (inactive)

Per the reported UACC-257 melanoma data, `Cc1cnc([C@]23CC[C@@H](C)[C@H](C)[C@H]2C2=CC[C@@H]4[C@@]5(C)Cc6c([nH]c7ccccc67)C(C)(C)[C@@H]5CC[C@@]4(C)[C@]2(C)CC3)o1` has growth of 61.5% [100 µM] (inactive)

Reading of growth for `Cc1ccc(C2=C/C(=C/c3ccc(Br)cc3)C(=O)N2CCc2ccc(S(N)(=O)=O)cc2)cc1` with UACC-257 melanoma: 101% (inactive)

growth value, target or system UACC-257 melanoma, for `NC(=O)c1c(NC(=O)COC(=O)Cc2ccccc2F)sc2c1CCC2` : 4.15% (active)

GET /values?item= `Cn1cc(-c2noc(-c3cn(C)c4ncc(F)cc34)n2)c2ccccc21` &system= UACC-257 melanoma returns growth: 101% (inactive)

// molecule `O=C(Nc1ccc(CN2CCOCC2)c(C(F)(F)F)c1)c1nc2ccc3[nH]ncc3c2c2c1CCCC2` , assay UACC-257 melanoma, growth value: 88.9% (inactive)

Tested on UACC-257 melanoma, the item `C#CCNC(=O)CC[C@@H](C)[C@H]1CC[C@H]2[C@@H]3CC[C@@H]4CC(=O)CC[C@]4(C)[C@H]3CC[C@]12C` showed growth equal to -0.129% [100 µM] (active)

====

System: HOP-92 NSCLC
run_description: NCI-60 one-dose screen, 48 h
test_conditions: 10 µM unless noted
This is part of a sample that, as a whole, favours compounds with a hit. Of some 83,000 tested, about 20% had one in any assay. Activity calls are given as the source filed them. Rule for the calls: active = growth percent below 10; inactive = the rest.
Reply using exactly one outcome from 1 = active, -1 = inactive

[
  {
    "compound": "O=S(=O)(/N=c1/n(-c2ccccc2)nc2n1CCN2C1=NCCN1)c1ccc(-c2ccccc2)cc1",
    "discrete_label": -1
  },
  {
    "compound": "CC(C)OC(=O)Nc1cc(F)ccc1F",
    "discrete_label": -1
  },
  {
    "compound": "Cn1cc(-c2nnc(-c3ccccc3)s2)c2cc(Br)cnc21",
    "discrete_label": -1
  }
]

For `C#C[C@]1(O)CC[C@H]2[C@@H]3CC=C4c5nc(Nc6ncccn6)sc5CC[C@]4(C)[C@H]3CC[C@@]21C` , what call appears in the results of this test?
-1

# fetch the recorded call for `COc1cc2c(=O)[nH]c3cc([N+](=O)[O-])ccc3c2cc1[N+](=O)[O-]` here
-1

// outcome(item) with item = `COc1ccc(/C=C(/C2=NCCN2)n2ccc3ccccc32)cc1`
-1

For this compound, state the assay outcome: C#CC(OC(=O)N(C)C)(c1ccccc1)c1ccc(F)cc1 (stereo not drawn)
-1

In this assay, the call recorded for `CCCCCCNC(=O)Nc1ncnc2c1ncn2-c1ccccc1` was what?
-1

Identify the outcome logged in this assay for the compound shown: `C=C(C)[C@@H]1CC[C@]2(c3ncc(C)o3)CC[C@]3(C)[C@H](CC[C@@H]4[C@@](C)(CCC#N)[C@H](C(=C)C)CC[C@]43C)[C@@H]12`
1

Entry source: PubChem BioAssay (NCI)
